Each recorded value in this set is attributed to patent US20230122249A1.

# System: CD69 in human whole blood
# RUN DESCRIPTION: Induction of CD69 in human whole blood (hWB)
# Format: cell-based
# CONDITION DESCRIPTION: heparinized human whole blood, 17 h, CD69 surface staining; 100% set to 1 uM resiquimod; average where assay repeated
# Method: The induction of Type I interferon (IFN) MX-1 genes and the B-cell activation marker CD69 are downstream events that occur upon activation of the TLR7 pathway. […] Centrifuge at 2000 rpm for 5 minutes aspirate with HCS plate washer, mix on shaker for 30 sec and then wash with 70 uL in dPBS and pelleted 2 xs (2000 rpm for 5 min) and 50 ul wash in FACS buffer pelleted 1 xs(2000 rpm for 5 min). […] Plates were read on iQuePlus. […]
Note to self: class = bucket of EC50, per bucket 1 (below 10 nM), bucket 2 (10 nM to below 200 nM), bucket 3 (200 nM or more)

Using the reported EC50, which band applies to COc1cc(C(=O)N2CC3(COC3)C2)ccc1Cn1ncc2nc(N)nc(NCC3CC4(CC4)C3)c21 [Compound 174] ?
bucket 3

Using the reported EC50, which band applies to COc1cc(C(=O)N2C[C@H]3CNC[C@H]3C2)ccc1Cn1ncc2nc(N)nc(NCC3CC4(C3)CC4(F)F)c21 (some centres unmarked) [Compound 159] ?
bucket 3

Using the reported EC50, which band applies to COc1cc(C(=O)N2CC3(CN(C)C3)C2)ccc1Cn1ncc2nc(N)nc(NCC3CC4(CC4)C3)c21 [Compound 173] ?
bucket 1

Using the reported EC50, which band applies to COc1cc(C(=O)N2CCN(CC(F)(F)F)CC2)ccc1Cn1ncc2nc(N)nc(NCC3CC4(CC4)C3)c21 [Compound 237] ?
bucket 3

Using the reported EC50, which band applies to COc1cc(C(=O)NC2CCN(CC(C)(C)O)CC2)ccc1Cn1ncc2nc(N)nc(NCC3CC4(CC4)C3)c21 [Compound 238] ?
bucket 2

Using the reported EC50, which band applies to COc1cc(CN2CC3(CC(O)C3)C2)ccc1Cn1ncc2nc(N)nc(NCC3CC4(CCC4)C3)c21 (centres unmarked) [Compound 158] ?
bucket 2

Using the reported EC50, which band applies to COc1cc(CN2CC3(CNC3)C2)ccc1Cn1ncc2nc(N)nc(NCC3CC4(CCC4)C3)c21 [Compound 155] ?
bucket 3

Using the reported EC50, which band applies to CCCCNc1nc(N)nc2c(C)nn(Cc3ccc(CN4CC5(C4)CN(C(C)=O)C5)cc3OC)c12 [Compound 244] ?
bucket 2

Using the reported EC50, which band applies to COc1cc(CN2C[C@H]3CN(C)C[C@H]3C2)ccc1Cn1ncc2nc(N)nc(NCC3CC4(CC4)C3)c21 [Compound 148] ?
bucket 1

Using the reported EC50, which band applies to Nc1nc(NCC2CC3(CC3)C2)c2c(cnn2Cc2ccc(C(=O)C3C[C@H]4CNC[C@H]4N3)cc2OC(F)F)n1 (some centres unmarked) [Compound 224] ?
bucket 3

Using the reported EC50, which band applies to COc1cc(CNC2CCC2)ccc1Cn1ncc2nc(N)nc(NCC3CC4(CCC4)C3)c21 [Compound 153] ?
bucket 2

Using the reported EC50, which band applies to CCC[C@@H](CCO)Nc1nc(N)nc2cnn(Cc3ccc(CN4CC5(CN(C)C5)C4)cc3OC)c12 [Compound 215] ?
bucket 2

Using the reported EC50, which band applies to CCC[C@@H](CCO)Nc1nc(N)nc2cnn(Cc3ncc(C4CCC5(CC4)CN(C4CCOCC4)C5)cc3OC)c12 [Compound 271] ?
bucket 1

Using the reported EC50, which band applies to CCC[C@@H](CCO)Nc1nc(N)nc2cnn(Cc3ccc(CN4CC5(C4)CN(C(C)=O)C5)cc3OC)c12 [Compound 101] ?
bucket 1

Using the reported EC50, which band applies to COc1cc(CN2CC3(CCOCC3)C2)ccc1Cn1ncc2nc(N)nc(NCC3CC4(C3)CC4F)c21 (centres unmarked) [Compound 117] ?
bucket 2

Using the reported EC50, which band applies to CCC[C@@H](CCO)Nc1nc(N)nc2c(C)nn(Cc3ccc(CNC4CC5(C4)CN(C)C5)cc3OC)c12 [Compound 269] ?
bucket 1

Using the reported EC50, which band applies to CCCCNc1nc(N)nc2cnn(Cc3ccc(CN4CC5(CCN(CCO)C5)C4)cc3OC)c12 [Compound 261] ?
bucket 1

Using the reported EC50, which band applies to COc1cc(CN2CC3(C2)CS(=O)(=O)C3)ccc1Cn1ncc2nc(N)nc(NCC3CC4(CC4)C3)c21 (centres unmarked) [Compound 145] ?
bucket 3

Using the reported EC50, which band applies to CCC[C@@H](CCO)Nc1nc(N)nc2cnn(Cc3ccc(CN4CC5(CN(CC)C5)C4)cc3OC)c12 [Compound 249] ?
bucket 1

Using the reported EC50, which band applies to COc1cc(C(=O)N2CC3(CNC3)C2)ccc1Cn1ncc2nc(N)nc(NCC3CC4(CCC4)C3)c21 [Compound 180] ?
bucket 3

Using the reported EC50, which band applies to COc1cc(C(=O)N2CC3(CN(C)C3)C2)ccc1Cn1ncc2nc(N)nc(NCC3CC4(CCC4)C3)c21 [Compound 200] ?
bucket 2

Using the reported EC50, which band applies to COc1cc(C(=O)N(C)CCN(C)C)ccc1Cn1ncc2nc(N)nc(NCC3CC4(CC4)C3)c21 [Compound 222] ?
bucket 1

Using the reported EC50, which band applies to Nc1nc(NCC2CC3(CC3)C2)c2c(cnn2Cc2ccc(CN3CC4(CNC4)C3)cc2OC(F)F)n1 [Compound 242] ?
bucket 3

Using the reported EC50, which band applies to COc1cc(C(=O)N2CCNCC2)ccc1Cn1ncc2nc(N)nc(NCC3CC4(CC4)C3)c21 [Compound 171] ?
bucket 1

Using the reported EC50, which band applies to COc1cc(CN2CC3(C2)CN(C(C)=O)C3)ccc1Cn1ncc2nc(N)nc(NCc3noc(C)n3)c21 [Compound 264] ?
bucket 2

Using the reported EC50, which band applies to COc1cc(CN2CC(CCO)C2)ccc1Cn1ncc2nc(N)nc(NCC3CC4(CC4)C3)c21 [Compound 168] ?
bucket 1

Using the reported EC50, which band applies to CCCCNc1nc(N)nc2cnn(Cc3ccc(CN4CC5(COC5)C4)cc3OC)c12 [Compound 103] ?
bucket 2

###

Kindly supply the reported EC50 values for the records listed here.
# Tested on: CD69 in human whole blood
# RUN DESCRIPTION: Induction of CD69 in human whole blood (hWB)
# Assay type: cell-based
# CONDITION DESCRIPTION: heparinized human whole blood, 17 h, CD69 surface staining; 100% set to 1 uM resiquimod; average where assay repeated
Answer with a number only, understood to be in nM.

Sample COc1cc(CN2CC3(CC(O)C3)C2)ccc1Cn1ncc2nc(N)nc(NCC3CC4(CC4)C3)c21 (centres unmarked) ; EC50 observed: 8.9

Sample CCC[C@@H](CCO)Nc1nc(N)nc2cnn(Cc3ccc(CN4CC5(C4)CN(C(C)C)C5)cc3OC)c12 ; EC50 observed: 1.3

Sample COc1cc(CN2C[C@H]3CNC[C@H]3C2)ccc1Cn1ncc2nc(N)nc(NCC3CC4(CCC4)C3)c21 ; EC50 observed: 364

Sample COc1cc(CN2CCN(CCO)CC2)ccc1Cn1ncc2nc(N)nc(NCC3CC4(C3)CC(F)(F)C4)c21 ; EC50 observed: 117

Sample COc1cc(CN2CC3(C2)CN(C(C)=O)C3)ccc1Cn1ncc2nc(N)nc(NCC3CC4(CC4)C3)c21 ; EC50 observed: 52.9

Sample COc1cc(CN2CC3(C2)CN(C(C)C)C3)ccc1Cn1ncc2nc(N)nc(NCc3noc(C)n3)c21 ; EC50 observed: 12.7

Sample CCC[C@@H](CCO)Nc1nc(N)nc2cnn(Cc3ccc(C(=O)N4CC5(CN(C)C5)C4)cc3OC)c12 ; EC50 observed: 36.3

Sample COc1cc(C(=O)N2C[C@H]3CN(C)C[C@H]3C2)ccc1Cn1ncc2nc(N)nc(NCC3CC4(C3)CC(F)(F)C4)c21 ; EC50 observed: 493

Sample COc1cc(CN(C)C)ccc1Cn1ncc2nc(N)nc(NCC3CC4(C3)CC(F)(F)C4)c21 ; EC50 observed: 783

Sample CCC[C@@H](CCO)Nc1nc(N)nc2cnn(Cc3ncc(C4=CC5(CCNCC5)C4)cc3OC)c12 ; EC50 observed: 31.9

Sample COc1cc(C(=O)NCCCN(C)C)ccc1Cn1ncc2nc(N)nc(NCC3CC4(CC4)C3)c21 ; EC50 observed: 32.4

Sample COc1cc(C(=O)N2C[C@H]3C[C@@H]2CN3C)ccc1Cn1ncc2nc(N)nc(NCC3CC4(C3)CC(F)(F)C4)c21 ; EC50 observed: 1000

Sample CN1CCC(NC(=O)c2ccc(Cn3ncc4nc(N)nc(NCC5CC6(CC6)C5)c43)c(OC(F)F)c2)CC1 ; EC50 observed: 117

Sample COc1cc(C(=O)N2C[C@H]3CN(C)C[C@H]3C2)ccc1Cn1ncc2nc(N)nc(NCC3CC4(CC4)C3)c21 ; EC50 observed: 3.6

Sample CCCCNc1nc(N)nc2cnn(Cc3ccc(CN4CCC5(CC4)CNC5)cc3OC)c12 ; EC50 observed: 5.7

Sample CCC[C@@H](CCO)Nc1nc(N)nc2cnn(Cc3ccc(CN4CC5(C4)CN(CC4CCC4)C5)cc3OC)c12 ; EC50 observed: 0.4

Sample CCCCNc1nc(N)nc2cnn(Cc3ccc(CN4CCC5(CCN(CCO)C5)C4)cc3OC)c12 (centres unmarked) ; EC50 observed: 1.3

Sample CCC[C@@H](CCO)Nc1nc(N)nc2cnn(Cc3ncc(C4=CC5(CCN(C6CCOCC6)CC5)C4)cc3OC)c12 ; EC50 observed: 1.5

Sample COc1cc(CN2CC3(CC(OC)C3)C2)ccc1Cn1ncc2nc(N)nc(NCC3CC4(CC4)C3)c21 (centres unmarked) ; EC50 observed: 37

Sample COc1cc(C(=O)NC2CC3(C2)CN(C)C3)ccc1Cn1ncc2nc(N)nc(NCC3CC4(CC4)C3)c21 (centres unmarked) ; EC50 observed: 206

Sample COc1cc(C(=O)NCCN(C)C)ccc1Cn1ncc2nc(N)nc(NCC3CC4(C3)CC4(F)F)c21 (centres unmarked) ; EC50 observed: 268

Sample COc1cc(C(=O)N2CCN(CCO)CC2)ccc1Cn1ncc2nc(N)nc(NCC3CC4(CC4)C3)c21 ; EC50 observed: 110

Sample CN1C[C@H]2C[C@@H]1CN2C(=O)c1ccc(Cn2ncc3nc(N)nc(NCC4CC5(CC5)C4)c32)c(OC(F)F)c1 ; EC50 observed: 37.7

Sample COc1cc(CN2C[C@@H]3C[C@H]2CN3)ccc1Cn1ncc2nc(N)nc(NCC3CC4(CCC4)C3)c21 ; EC50 observed: 374

Sample COc1cc(CN2CC3(C2)CS(=O)(=O)C3)ccc1Cn1ncc2nc(N)nc(NCc3noc(C)n3)c21 ; EC50 observed: 18.7

Sample COc1cc(C(=O)N[C@H]2CCN(C)C2)ccc1Cn1ncc2nc(N)nc(NCC3CC4(CC4)C3)c21 ; EC50 observed: 21.9

Sample COc1cc(CN2CC3(C2)CN(C(C)=O)C3)ccc1Cn1ncc2nc(N)nc(NCc3cc(C)on3)c21 ; EC50 observed: 61.9

Sample COc1cc(C(=O)N2C[C@H]3C[C@@H]2CN3C)ccc1Cn1nc(C)c2nc(N)nc(NCC3CC4(CC4)C3)c21 ; EC50 observed: 45.8

Sample COc1cc(C(=O)N2CCN(C(C)=O)CC2)ccc1Cn1ncc2nc(N)nc(NCC3CC4(CC4)C3)c21 ; EC50 observed: 223
